# METHOD_NOTES: Toxicology, 5-day daily oral gavage
# Assay type: in vivo, mice
# MEASUREMENT_CONTEXT: 5 consecutive days
ATTRIBUTE_MEASURED: clinical pathology data, treated groups vs vehicle control group

compound="Cc1c(C(=O)C(N)=O)c2c(OCC(=O)NS(=O)(=O)CCCC(=O)O)cccc2n1Cc1ccccc1 [ILY-IV-40]" data_value="no differences"
compound="Cc1c(C(=O)C(N)=O)c2c(OCC(=O)O)cccc2n1CCCCCCCCCCCCSCCCCCCCCSCCCCCCCCCCCCn1c(C)c(C(=O)C(N)=O)c2c(OCC(=O)O)cccc21 [ILY-v-26]" data_value="no differences"
compound="Cc1c(C(=O)C(N)=O)c2c(OCC(=O)O)cccc2n1CCCCCCCCCCCCOc1ccc(C(C)(C)c2ccc(OCCCCCCCCCCCCn3c(C)c(C(=O)C(N)=O)c4c(OCC(=O)O)cccc43)cc2)cc1 [ILY-v-30]" data_value="no differences"
compound="Cc1c(C(=O)C(N)=O)c2c(OCC(=O)O)cccc2n1CCCCCCCCCCCCOc1ccccc1-c1ccccc1OCCCCCCCCCCCCn1c(C)c(C(=O)C(N)=O)c2c(OCC(=O)O)cccc21 [ILY-v-37]" data_value="no differences"
